B1: VH:VL chains; a variant is named by its letters at X, in order (parent)
chain 1: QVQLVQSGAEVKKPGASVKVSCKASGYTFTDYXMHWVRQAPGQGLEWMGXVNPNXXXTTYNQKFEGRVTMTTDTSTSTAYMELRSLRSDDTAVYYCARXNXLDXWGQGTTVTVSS
chain 2: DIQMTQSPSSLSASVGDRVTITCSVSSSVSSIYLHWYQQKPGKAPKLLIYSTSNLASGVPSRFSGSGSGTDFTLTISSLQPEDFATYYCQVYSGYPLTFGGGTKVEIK

- Variants of: B1
- Protocol details: yeast display scFab, FACS + sequencing
- Experimental conditions: with MET
The other results are listed elsewhere or left out. No count for the full screen is at hand.

# Variant code, antigen binding call
measured = [
    ("DKTGDDVF", "no binding"),
    ("YTGRGSAA", "binds"),
    ("FRERGSAV", "binds"),
    ("YTEGDDWY", "no binding"),
    ("DARGGFGV", "no binding"),
    ("VGGGADGA", "no binding"),
    ("YRARGFGV", "binds"),
    ("YRARGVGV", "binds"),
    ("YTARDVGV", "no binding"),
    ("SEEGTDWD", "no binding"),
    ("SEARSYLV", "no binding"),
    ("YRERGSAV", "binds"),
    ("YGAAGSAA", "binds"),
    ("YTKRGSAA", "no binding"),
    ("YRGKDVGV", "binds"),
    ("YGATSSLA", "no binding"),
    ("YRARGYGV", "binds"),
    ("YREKGSAA", "binds"),
    ("YRARSSVV", "binds"),
    ("YRARSSAA", "binds"),
    ("AREKGSAA", "no binding"),
    ("YRRGGVGV", "binds"),
]
